Each recorded value in this set is attributed to ChEMBL document CHEMBL3286193.

- measurementProtocol: Plasma concentration in CB17 SCID mouse xenografted with human DOHH2 cells at 20 mg/kg, iv qd administered for 14 days measured at 2 hrs post last dose
- Type: ADME, organism-based, DOHH-2
- Design: dose 20 mg/kg, route intravenous

>  <sampleSmiles>
C=CC(=O)Nc1cccc(Nc2ncc(NC(=O)c3cc(NC(=O)c4cccc(C(F)(F)F)c4)ccc3C)cn2)c1

>  <displayUnit>
ng/mL

>  <concentration at 2 h>
2100

$$$$

----------
- measurementTarget: Tyrosine-protein kinase BTK (Homo sapiens, UniProt Q06187)
- Sequence (Q06187 whole entry): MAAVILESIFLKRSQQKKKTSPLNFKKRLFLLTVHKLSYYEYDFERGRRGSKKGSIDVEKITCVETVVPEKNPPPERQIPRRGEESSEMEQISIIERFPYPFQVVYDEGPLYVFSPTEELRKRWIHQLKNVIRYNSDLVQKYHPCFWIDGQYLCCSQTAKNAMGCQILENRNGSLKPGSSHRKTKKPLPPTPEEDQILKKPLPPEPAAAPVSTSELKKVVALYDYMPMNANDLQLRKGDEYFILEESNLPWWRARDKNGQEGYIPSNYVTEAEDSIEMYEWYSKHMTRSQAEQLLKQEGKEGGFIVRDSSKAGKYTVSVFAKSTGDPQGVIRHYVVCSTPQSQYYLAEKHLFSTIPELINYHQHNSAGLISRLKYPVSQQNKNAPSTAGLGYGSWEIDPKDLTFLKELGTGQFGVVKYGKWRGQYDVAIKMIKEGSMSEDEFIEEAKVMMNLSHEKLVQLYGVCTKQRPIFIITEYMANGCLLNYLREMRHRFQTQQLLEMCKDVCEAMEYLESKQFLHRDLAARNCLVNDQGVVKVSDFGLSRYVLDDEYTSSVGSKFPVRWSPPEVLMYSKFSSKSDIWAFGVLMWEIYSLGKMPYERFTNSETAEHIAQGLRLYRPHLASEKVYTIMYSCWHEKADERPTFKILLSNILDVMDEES
- measurementProtocol: Inhibition of Btk in human Ramos cells assessed as inhibition of PLC-gamma2 phosphorylation at Tyr1217 after 1 hr by Western blot analysis
- Format: cell-based
pIC50: −log10 of the molar value.

>  <sampleSmiles>
C=CC(=O)NCC(=O)Nc1cccc(Nc2ncc(NC(=O)c3cc(NC(=O)c4cccc(C(F)(F)F)c4)ccc3C)cn2)c1

>  <pIC50>
7.89

$$$$
